# Tested on: GDM-1 cells
# ASSAY: MTT antiproliferative assay, GDM-1 cells
# Type: cell-based, human
# CONDITION_CONTEXT: 16 μM, 72 h
# Method: Cells were grown in a 5% CO2 incubator at 37 °C. We used trypsin to digest cells in logarithmic growth phase. Then, we plated the cells in 96-well plates at 5000 cells per well evenly. After cell adherence, chalcones were added in the 96-well plates for 48 h or 72 h. We added MTT reagent to each well and incubated for 2 h in the incubator. Finally, the absorbance value was measured at 490 nm after treatment with DMSO.
QUANTITY_MEASURED: cell proliferation rate (%)

>>> df
                                   compound  readout_value
0  CC1(C)C=Cc2c(ccc(C(=O)/C=C/c3ccc(O)cc3)c2O)O1 [Isobavachromene]          69.00
1  CC(C)=CCc1cc(C(=O)/C=C/c2ccc(O)cc2)c(O)cc1O [Broussochalcone B]          29.67
2  CC(C)=CCc1c(O)ccc(C(=O)/C=C/c2ccc(O)cc2)c1O [Isobavachalcone]          57.33
3  CC1(C)CCc2c(ccc(C(=O)/C=C/c3ccc(O)cc3)c2O)O1 [Dorsmanin A]          36.67
4  CC1(C)C=Cc2cc(C(=O)/C=C/c3ccc(O)cc3)c(O)cc2O1 [Bavachromene]          29.40
